# CC50 at 72 h per entry
assay: Cytotoxicity against human A549 cells assessed as reduction in viable cells after 72 hrs by MTT assay; assay type: cell-based

// solved cases for CC50 at 72 h follow
[[record]]
compound = "CC(=O)c1c(O)c(C)c(O)c2c1OC1=CC(=O)/C(=C(/C)Nc3cccc(F)c3)C(=O)C12C (centres undefined)"
endpoint_value = "> 100 µM"

[[record]]
compound = "CC(=O)c1c(O)c(C)c(O)c2c1OC1=CC(=O)/C(=C(/C)NCCc3ccc(O)cc3)C(=O)[C@@]12C"
endpoint_value = "70 µM"

[[record]]
compound = "CC(=O)c1c(O)c(C)c(O)c2c1OC1=CC(=O)/C(=C(/C)Nc3cccc(Br)c3)C(=O)C12C (centres undefined)"
endpoint_value = "> 100 µM"


Could you now look at the following compound, please?
Request: Quick one: CC50 at 72 h for CC(=O)c1c(O)c(C)c(O)c2c1OC1=CC(=O)/C(=C(/C)NCCCc3cc(C(C)(C)C)c(O)c(C(C)(C)C)c3)C(=O)C12C (centres undefined) ?
Result: > 100 µM
